Source: ChEMBL document CHEMBL4251605

Field: IC50. Provide a value for each of the compounds that follow.
- SYSTEM: Intestinal-type alkaline phosphatase (Homo sapiens, UniProt P09923)
- Sequence (P09923 whole entry): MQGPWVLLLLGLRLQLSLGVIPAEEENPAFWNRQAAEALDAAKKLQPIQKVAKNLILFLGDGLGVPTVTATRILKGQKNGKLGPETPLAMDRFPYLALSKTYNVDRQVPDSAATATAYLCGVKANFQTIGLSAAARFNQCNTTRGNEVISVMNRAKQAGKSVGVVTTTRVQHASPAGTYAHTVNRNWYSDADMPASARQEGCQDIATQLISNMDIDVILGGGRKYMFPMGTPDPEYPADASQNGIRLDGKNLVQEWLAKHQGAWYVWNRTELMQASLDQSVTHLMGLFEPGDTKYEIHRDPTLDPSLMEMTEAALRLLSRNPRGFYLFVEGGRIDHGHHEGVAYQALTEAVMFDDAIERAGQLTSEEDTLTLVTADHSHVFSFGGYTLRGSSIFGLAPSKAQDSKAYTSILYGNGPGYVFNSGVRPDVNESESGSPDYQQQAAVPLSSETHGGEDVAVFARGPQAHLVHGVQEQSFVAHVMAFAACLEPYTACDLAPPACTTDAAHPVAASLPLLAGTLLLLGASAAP
- PROTOCOL: Inhibition of human IAP expressed in COS7 cells preincubated for 5 to 7 mins followed by CDP-star substrate addition measured after 15 to 20 mins by luminescence assay
Numbers only, in nM.

Example compounds with recorded IC50:
SMILES_STRUCTURE	IC50 [nM]
COc1cc(OC)cc(-c2nn3c(=O)cc(C(F)(F)F)nc3s2)c1	760
Cc1ccc(-c2nn3c(=O)cc(C(F)(F)F)nc3s2)cc1C	1750
O=c1cc(C(F)(F)F)nc2sc(-c3ccccc3)nn12	430
COc1ccc(-c2nn3c(=O)cc(C(F)(F)F)nc3s2)cc1	480

Problem: Item `O=c1cc(C(F)(F)F)nc2sc(-c3cccc(-c4ccccc4)c3)nn12` : provide IC50
Result: 1670

====

- SYSTEM: Intestinal-type alkaline phosphatase (Homo sapiens, UniProt P09923)
- PROTOCOL: Inhibition of human IAP expressed in COS7 cells preincubated for 5 to 7 mins followed by CDP-star substrate addition measured after 15 to 20 mins by luminescence assay
Field 'label' (enum: Met / Not met). Set to Met when IC50 is strictly under 5 µM; else Not met.

Problem: is_below(IC50, 5 µM) for `O=c1cc(C(F)(F)F)nc2sc(-c3ccc(OC(F)(F)F)cc3)nn12` ?
Result: Met

Problem: is_below(IC50, 5 µM) for `Cc1ccc(-c2nn3c(=O)cc(C(F)(F)F)nc3s2)cc1` ?
Result: Met

Problem: is_below(IC50, 5 µM) for `CCCCN(CCCC)c1nn2c(=O)cc(C(F)(F)F)nc2s1` ?
Result: Met

Problem: is_below(IC50, 5 µM) for N[C@@H](Cc1ccccc1)C(=O)O [PHENYLALANINE] ?
Result: Not met

Problem: is_below(IC50, 5 µM) for `CCOc1ccc(Nc2nn3c(=O)cc(C(F)(F)F)nc3s2)cc1` ?
Result: Met

Problem: is_below(IC50, 5 µM) for `CCc1ccc(-c2nn3c(=O)cc(C(F)(F)F)nc3s2)cc1` ?
Result: Met

====

- SYSTEM: Intestinal-type alkaline phosphatase (Homo sapiens)
- PROTOCOL: Inhibition of human IAP expressed in COS7 cells preincubated for 5 to 7 mins followed by CDP-star substrate addition measured after 15 to 20 mins by luminescence assay
OUTCOME_MEASURE: pIC50
Numbers only, as −log10 of the molar value.

Example molecules with recorded pIC50:
SMILES_STRUCTURE	SYSTEM	pIC50
CCCCCNc1nn2c(=O)cc(C(F)(F)F)nc2s1	Intestinal-type alkaline phosphatase (Homo sapiens)	6.12
CC(C)c1ccc(Nc2nn3c(=O)cc(C(F)(F)F)nc3s2)cc1	Intestinal-type alkaline phosphatase (Homo sapiens)	4.50
O=c1cc(C(F)(F)F)nc2sc(-c3cccc(C(F)(F)F)c3)nn12	Intestinal-type alkaline phosphatase (Homo sapiens)	6.17

Dear reader, for each entry below, please note its pIC50.
1. N#Cc1cccc(-c2nn3c(=O)cc(C(F)(F)F)nc3s2)c1
2. Nc1ccc(Nc2nn3c(=O)cc(C(F)(F)F)nc3s2)cc1

Result:
1: 5.95; 2: 6.15

Dear reader, for each entry below, please note its pIC50.
1. COc1cccc(Nc2nn3c(=O)cc(C(F)(F)F)nc3s2)c1
2. CN(C)CCNc1nn2c(=O)cc(C(F)(F)F)nc2s1
3. CCOc1ccc(-c2nn3c(=O)cc(C(F)(F)F)nc3s2)cc1
4. O=c1cc(C(F)(F)F)nc2sc(-c3cccc(F)c3)nn12

Result:
1: 6.36; 2: 5.43; 3: 6.10; 4: 6.13

====

- SYSTEM: Intestinal-type alkaline phosphatase (Homo sapiens, UniProt P09923)
- PROTOCOL: Inhibition of human IAP expressed in COS7 cells preincubated for 5 to 7 mins followed by CDP-star substrate addition measured after 15 to 20 mins by luminescence assay
Field: pIC50. Provide a value for each of the compounds that follow.
One number for each entry, as −log10 of the molar value.

Example compounds with recorded pIC50:
SMILES_STRUCTURE	SYSTEM	MEASURED_RESULT
CCCCNc1nn2c(=O)cc(C(F)(F)F)nc2s1	Intestinal-type alkaline phosphatase (Homo sapiens, UniProt P09923)	6.15
CN(N)c1nn2c(=O)cc(C(F)(F)F)nc2s1	Intestinal-type alkaline phosphatase (Homo sapiens, UniProt P09923)	5.65
Cc1cc(C)cc(-c2nn3c(=O)cc(C(F)(F)F)nc3s2)c1	Intestinal-type alkaline phosphatase (Homo sapiens, UniProt P09923)	6.34
O=c1cc(C(F)(F)F)nc2sc(-c3cccc([N+](=O)[O-])c3)nn12	Intestinal-type alkaline phosphatase (Homo sapiens, UniProt P09923)	6.32
C=CCNc1nn2c(=O)cc(C(F)(F)F)nc2s1	Intestinal-type alkaline phosphatase (Homo sapiens, UniProt P09923)	6.05

Problem: Item `CCCNc1nn2c(=O)cc(C(F)(F)F)nc2s1` : provide pIC50
Result: 6.51

====

- SYSTEM: Alkaline phosphatase, tissue-nonspecific isozyme (Homo sapiens)
- PROTOCOL: Inhibition of human TNAP expressed in COS7 cells preincubated for 5 to 7 mins followed by CDP-star substrate addition measured after 15 to 20 mins by luminescence assay
OUTCOME_MEASURE: IC50 (nM)
Answers are plain numbers, in nM.

Example molecules with recorded IC50:
SMILES_STRUCTURE	IC50 (nM)
O=c1cc(C(F)(F)F)nc2sc(-c3cccc([N+](=O)[O-])c3)nn12	620
CCCNc1nn2c(=O)cc(C(F)(F)F)nc2s1	1440

Consider the record given below.
Problem: Item `COc1cccc(Nc2nn3c(=O)cc(C(F)(F)F)nc3s2)c1` : provide IC50
Result: 380

====

- SYSTEM: Alkaline phosphatase, tissue-nonspecific isozyme (Homo sapiens)
- Sequence (P05186 whole entry): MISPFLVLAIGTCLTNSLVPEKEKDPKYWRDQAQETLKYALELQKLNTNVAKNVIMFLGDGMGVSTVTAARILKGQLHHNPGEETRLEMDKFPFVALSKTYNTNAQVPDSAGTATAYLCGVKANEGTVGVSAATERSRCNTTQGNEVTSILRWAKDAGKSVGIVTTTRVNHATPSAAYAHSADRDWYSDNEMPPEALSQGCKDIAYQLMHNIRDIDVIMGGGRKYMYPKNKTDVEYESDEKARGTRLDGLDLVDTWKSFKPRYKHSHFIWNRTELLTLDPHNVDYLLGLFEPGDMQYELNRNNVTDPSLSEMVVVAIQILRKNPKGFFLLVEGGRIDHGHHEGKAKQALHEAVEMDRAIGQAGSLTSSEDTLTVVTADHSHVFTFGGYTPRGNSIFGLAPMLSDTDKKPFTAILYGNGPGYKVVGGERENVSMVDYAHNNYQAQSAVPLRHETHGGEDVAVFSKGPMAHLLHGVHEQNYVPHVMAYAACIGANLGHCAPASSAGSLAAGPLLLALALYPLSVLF
- PROTOCOL: Inhibition of human TNAP expressed in COS7 cells preincubated for 5 to 7 mins followed by CDP-star substrate addition measured after 15 to 20 mins by luminescence assay
- Type: cell-based
OUTCOME_MEASURE: IC50 (nM)
Numbers only, in nM.

Example compounds with recorded IC50:
SMILES_STRUCTURE	UNITS	MEASURED_RESULT
CN(C)CCNc1nn2c(=O)cc(C(F)(F)F)nc2s1	nM	450
CCOc1ccc(Nc2nn3c(=O)cc(C(F)(F)F)nc3s2)cc1	nM	1580
CCCCCNc1nn2c(=O)cc(C(F)(F)F)nc2s1	nM	610

Dear reader, for each entry below, please note its IC50.
1. COc1ccccc1-c1nn2c(=O)cc(C(F)(F)F)nc2s1
2. O=c1cc(C(F)(F)F)nc2sc(-c3cccc(C(F)(F)F)c3)nn12
3. O=c1cc(C(F)(F)F)nc2sc(-c3cccc(F)c3)nn12
4. Nc1ccc(Nc2nn3c(=O)cc(C(F)(F)F)nc3s2)cc1
5. Cc1ccc(-c2nn3c(=O)cc(C(F)(F)F)nc3s2)cc1C
6. CCOc1ccccc1-c1nn2c(=O)cc(C(F)(F)F)nc2s1

Result:
1. 3480
2. 520
3. 1390
4. 330
5. 540
6. 4520

Dear reader, for each entry below, please note its IC50.
1. N#Cc1cccc(-c2nn3c(=O)cc(C(F)(F)F)nc3s2)c1
2. COc1ccc(-c2nn3c(=O)cc(C(F)(F)F)nc3s2)cc1
3. CCCCN(CCCC)c1nn2c(=O)cc(C(F)(F)F)nc2s1
4. CCOc1ccc(-c2nn3c(=O)cc(C(F)(F)F)nc3s2)cc1
5. Cc1cc(C)cc(-c2nn3c(=O)cc(C(F)(F)F)nc3s2)c1
6. O=c1cc(C(F)(F)F)nc2sc(-c3cccc(-c4ccccc4)c3)nn12
7. CC(C)c1ccc(Nc2nn3c(=O)cc(C(F)(F)F)nc3s2)cc1

Result:
560
280
1530
930
520
1120
1980
